Reported values of OD450 for individual entries
- EXPERIMENTAL_TARGET: T1, recombinant human OX40-Fc (human, UniProt P43489 29-214)
- T1 construct: also called rh-OX40-Fc; human OX40 hFC (R & D systems)
- T1 sequence: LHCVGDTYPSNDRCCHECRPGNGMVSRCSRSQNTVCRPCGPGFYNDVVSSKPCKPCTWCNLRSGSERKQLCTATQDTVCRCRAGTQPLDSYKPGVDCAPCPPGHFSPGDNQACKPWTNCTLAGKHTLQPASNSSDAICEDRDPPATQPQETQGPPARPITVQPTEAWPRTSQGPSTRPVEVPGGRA
- TEST_PROTOCOL: ELISA, OX40-Fc coated, VHH at 0.064 nM
Enter the number alone.

pgXX88-81 (VHH, not shown: small tags and cut ends) VHH: EVQLVESGGGLAQPGSSLRLSCTASGTVFSILSATWFRQAPGKAHEARELVAFISSDGVSMHADSVKGRFTISRDNAKSTVYLQMDNLQPEDTAAYYCKLSNSMMGMEYWGRGTQVTVSS ... 0.262
pgXX88-5 (VHH, not shown: small tags and cut ends) VHH: QVQLVESGGGLVQAGGSLRLSCAASGGTFSTYAMGWFRQAPGKEPQFVARITWSGYTLYTEPVQGRFAISRDNAKNTVYLQMNSLKPEDTAEYFCAADSSEFRDIPNRDSRANYRYWGQGTQVTVSS ... 0.057
pgXX88-SZ-4 (VHH, not shown: small tags and cut ends, also called ppXX88-SZ-4) VHH: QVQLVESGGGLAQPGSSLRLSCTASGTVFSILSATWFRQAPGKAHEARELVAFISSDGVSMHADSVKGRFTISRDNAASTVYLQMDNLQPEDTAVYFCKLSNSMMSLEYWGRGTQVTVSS ... 0.076

# next binder below
[in] Which OD450 value belongs to pgXX88-83 (VHH, not shown: small tags and cut ends) VHH: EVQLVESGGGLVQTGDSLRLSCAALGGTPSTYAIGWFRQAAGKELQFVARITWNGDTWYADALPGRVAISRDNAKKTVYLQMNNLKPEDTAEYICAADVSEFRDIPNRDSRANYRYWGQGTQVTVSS ?
[out] 0.063
